# experimental_details: BTK FAC plasma stability assay, rat plasma
# Type: in vitro ADME
# measurement_setup: incubation to 24 h
# Procedure: Plasma stability was conducted in Dulbecco's PBS buffer, mouse plasma, rat plasma or human plasma frozen with K3-EDTA from BiolVT). Thawed plasma was centrifuged prior to warming for 5 minutes at 37° C. […] Semi quantitative analysis (analyte: internal standard peak area ratio) was performed by LC-MS/MS using a Sciex QTrap 5500.
observation_type: half-life at 5 µM (h)
Write the number in h without appending the unit.

Input CCCCCCCCCCCN(C(=O)CCCCCCCCCC(=O)O)[C@@H](CCC(=O)NCC(=O)OC(C)(C)c1ccc(C(=O)Nc2cc(F)cc(-c3ncnc4[nH]c(-c5ccc(CCN6CCC7(CC6)CCN(C(=O)c6ccc(OC)c(N8CCC(=O)NC8=O)c6)CC7)cc5)cc34)c2C)c(F)c1)C(=O)O . Output half-life at 5 µM: 36.6

Input CCCCCCCCCCCN(C(=O)CCCCCCCCCC(=O)O)[C@@H](CCC(=O)NCC(=O)O[C@H]1CN(C(=O)Nc2cc(F)cc(-c3ncnc4[nH]c(-c5ccc(CCN6CCC7(CC6)CCN(C(=O)c6ccc(OC)c(N8CCC(=O)NC8=O)c6)CC7)cc5)cc34)c2C)C[C@@H]1CC(C)C)C(=O)O . Output half-life at 5 µM: 1.2

====

# experimental_details: BTK FAC plasma stability assay, mouse plasma
# Type: in vitro ADME
# measurement_setup: incubation to 24 h
# Description: Plasma stability was conducted in Dulbecco's PBS buffer, mouse plasma, rat plasma or human plasma frozen with K3-EDTA from BiolVT). Thawed plasma was centrifuged prior to warming for 5 minutes at 37° C. […] Semi quantitative analysis (analyte: internal standard peak area ratio) was performed by LC-MS/MS using a Sciex QTrap 5500.
As shown below, each of these compounds has a reported Plasma stability (h) mouse value.

Below: 5 compounds and their reported Plasma stability (h) mouse.
>>> meas_value("CCCCCCCCCCCN(C(=O)CCCCCCCCCC(=O)O)C(CCC(=O)NCCOCCOCCOCCOCCOCCOCCOCCOCCOCCOCCOCCOCCC(=O)NCc1ccc(C(=O)OC(C)(C)c2ccc(C(=O)Nc3cc(F)cc(-c4ncnc5[nH]c(-c6ccc(CCN7CCC8(CC7)CCN(C(=O)c7ccc(OC)c(N9CCC(=O)NC9=O)c7)CC8)cc6)cc45)c3C)c(F)c2)cn1)C(=O)O (stereo not drawn)")
"17.8 h"
>>> meas_value("CCCCCCCCCCCN(C(=O)CCCCCCCCCC(=O)O)C(CCC(=O)NCCOCCOCCOCCOCCOCCOCCOCCOCCOCCOCCOCCOCCC(=O)NCc1ccc(C(=O)OC(C)(C)c2ccc(C(=O)Nc3cc(F)cc(-c4ncnc5[nH]c(-c6ccc(CCN7CCC8(CC7)CCN(C(=O)c7ccc(OC)c(N9CCC(=O)NC9=O)c7)CC8)cc6)cc45)c3C)c(F)c2)cc1)C(=O)O (stereo not drawn)")
">48 h"
>>> meas_value("CCCCCCCCCCCN(C(=O)CCCCCCCCCC(=O)O)[C@@H](CCC(=O)NCCOCCOCCOCCOCCOCCOCCOCCOCCOCCOCCOCCOCCC(=O)NCC(=O)OC(C)(C)c1ccc(C(=O)Nc2cc(F)cc(-c3ncnc4[nH]c(-c5ccc(CCN6CCC7(CC6)CCN(C(=O)c6ccc(OC)c(N8CCC(=O)NC8=O)c6)CC7)cc5)cc34)c2C)c(F)c1)C(=O)O")
"12.3 h"
>>> meas_value("CCCCCCCCCCCN(C(=O)CCCCCCCCCC(=O)O)C(CCC(=O)NCCOCCOCCOCCOCCOCCOCCOCCOCCOCCOCCOCCOCCC(=O)N1CCC(F)(C(=O)OC(C)(C)c2ccc(C(=O)Nc3cc(F)cc(-c4ncnc5[nH]c(-c6ccc(CCN7CCC8(CC7)CCN(C(=O)c7ccc(OC)c(N9CCC(=O)NC9=O)c7)CC8)cc6)cc45)c3C)c(F)c2)CC1)C(=O)O (stereo not drawn)")
"<2 h"
>>> meas_value("CCCCCCCCCCCN(C(=O)CCCCCCCCCC(=O)O)C(CCC(=O)NCCOCCOCCOCCOCCOCCOCCOCCOCCOCCOCCOCCOCCC(=O)NCc1ccc(CC(=O)OC(C)(C)c2ccc(C(=O)Nc3cc(F)cc(-c4ncnc5[nH]c(-c6ccc(CCN7CCC8(CC7)CCN(C(=O)c7ccc(OC)c(N9CCC(=O)NC9=O)c7)CC8)cc6)cc45)c3C)c(F)c2)cc1)C(=O)O (stereo not drawn)")
">48 h"

Now for the compound whose Plasma stability (h) mouse we want.
Input CCCCCCCCCCCN(C(=O)CCCCCCCCCC(=O)O)C(CCC(=O)NCCOCCOCCOCCOCCOCCOCCOCCOCCOCCOCCOCCOCCC(=O)NCCOP(=O)(O)OC(C)(C)c1ccc(C(=O)Nc2cc(F)cc(-c3ncnc4[nH]c(-c5ccc(CCN6CCC7(CC6)CCN(C(=O)c6ccc(OC)c(N8CCC(=O)NC8=O)c6)CC7)cc5)cc34)c2C)c(F)c1)C(=O)O (stereo not drawn) . Output Plasma stability (h) mouse: >48 h

====

As shown below, each of these compounds has a reported Plasma stability (h) PBS value.
# experimental_details: BTK FAC plasma stability assay, PBS buffer arm
# Format: physicochemical
# measurement_setup: incubation to 24 h

Below: 2 compounds and their reported Plasma stability (h) PBS.
>>> meas_value("CCCCCCCCCCCN(C(=O)CCCCCCCCCC(=O)O)C(CCC(=O)NCCOCCOCCOCCOCCOCCOCCOCCOCCOCCOCCOCCOCCC(=O)NCc1cc(C(=O)OC(C)(C)c2ccc(C(=O)Nc3cc(F)cc(-c4ncnc5[nH]c(-c6ccc(CCN7CCC8(CC7)CCN(C(=O)c7ccc(OC)c(N9CCC(=O)NC9=O)c7)CC8)cc6)cc45)c3C)c(F)c2)ccn1)C(=O)O (stereo not drawn)")
">48 h"
>>> meas_value("CCCCCCCCCCCN(C(=O)CCCCCCCCCC(=O)O)C(CCC(=O)NCCOCCOCCOCCOCCOCCOCCOCCOCCOCCOCCOCCOCCC(=O)N[C@@H](C)C(=O)OC(C)(C)c1ccc(C(=O)Nc2cc(F)cc(-c3ncnc4[nH]c(-c5ccc(CCN6CCC7(CC6)CCN(C(=O)c6ccc(OC)c(N8CCC(=O)NC8=O)c6)CC7)cc5)cc34)c2C)c(F)c1)C(=O)O (stereo partly drawn)")
">48 h"

Input CCCCCCCCCCCN(C(=O)CCCCCCCCCC(=O)O)C(CCC(=O)NCCOCCOCCOCCOCCOCCOCCOCCOCCOCCOCCOCCOCCC(=O)N1CCN(CC(=O)OC(C)(C)c2ccc(C(=O)Nc3cc(F)cc(-c4ncnc5[nH]c(-c6ccc(CCN7CCC8(CC7)CCN(C(=O)c7ccc(OC)c(N9CCC(=O)NC9=O)c7)CC8)cc6)cc45)c3C)c(F)c2)CC1)C(=O)O (stereo not drawn) . Output Plasma stability (h) PBS: >48 h

====

# experimental_details: BTK FAC plasma stability assay, mouse plasma
# Assay type: in vitro ADME
# measurement_setup: incubation to 24 h
As shown below, each of these molecules has a reported Plasma stability (h) mouse value.

>>> meas_value("CCCCCCCCCCCN(C(=O)CCCCCCCCCC(=O)O)C(CCC(=O)NCCOCCOCCOCCOCCOCCOCCOCCOCCOCCOCCOCCOCCC(=O)N1CCC[C@H]1CC(=O)OC(C)(C)c1ccc(C(=O)Nc2cc(F)cc(-c3ncnc4[nH]c(-c5ccc(CCN6CCC7(CC6)CCN(C(=O)c6ccc(OC)c(N8CCC(=O)NC8=O)c6)CC7)cc5)cc34)c2C)c(F)c1)C(=O)O (stereo partly drawn)")
">48 h"
>>> meas_value("CCCCCCCCCCCN(C(=O)CCCCCCCCCC(=O)O)C(CCC(=O)NCCOCCOCCOCCOCCOCCOCCOCCOCCOCCOCCOCCOCCC(=O)NC(C)(C)CC(=O)OC(C)(C)c1ccc(C(=O)Nc2cc(F)cc(-c3ncnc4[nH]c(-c5ccc(CCN6CCC7(CC6)CCN(C(=O)c6ccc(OC)c(N8CCC(=O)NC8=O)c6)CC7)cc5)cc34)c2C)c(F)c1)C(=O)O (stereo not drawn)")
">48 h"

Input COCCOCCOCCOCCOCCOCCOCCOCCOCCOCCOCCOCCC(=O)NCC(=O)OC(C)(C)c1ccc(C(=O)Nc2cc(F)cc(-c3ncnc4[nH]c(-c5ccc(CCN6CCC7(CC6)CCN(C(=O)c6ccc(OC)c(N8CCC(=O)NC8=O)c6)CC7)cc5)cc34)c2C)c(F)c1 . Output Plasma stability (h) mouse: 6.8 h

====

# experimental_details: BTK FAC plasma stability assay, dog plasma
# Assay type: in vitro ADME
As shown below, each of these compounds has a reported Plasma stability (h) dog value.
Write the number in h without appending the unit.

>>> meas_value("CCCCCCCCCCCN(C(=O)CCCCCCCCCC(=O)O)C(CCC(=O)NCCOCCOCCOCCOCCOCCOCCOCCOCCOCCOCCOCCOCCC(=O)N[C@@H](C)C(=O)OC(C)(C)c1ccc(C(=O)Nc2cc(F)cc(-c3ncnc4[nH]c(-c5ccc(CCN6CCC7(CC6)CCN(C(=O)c6ccc(OC)c(N8CCC(=O)NC8=O)c6)CC7)cc5)cc34)c2C)c(F)c1)C(=O)O (stereo partly drawn)")
31.2

Input CCCCCCCCCCCN(C(=O)CCCCCCCCCC(=O)O)C(CCC(=O)NCCOCCOCCOCCOCCOCCOCCOCCOCCOCCOCCOCCOCCOCCOCCOCCOCCOCCOCCOCCOCCOCCOCCOCCOCCC(=O)NCC(=O)OC(C)(C)c1ccc(C(=O)Nc2cc(F)cc(-c3ncnc4[nH]c(-c5ccc(CCN6CCC7(CC6)CCN(C(=O)c6ccc(OC)c(N8CCC(=O)NC8=O)c6)CC7)cc5)cc34)c2C)c(F)c1)C(=O)O (stereo not drawn) . Output Plasma stability (h) dog: 37.3
